These data points were gathered from ChEMBL document CHEMBL4406880.

System: HOP-62
experiment.notes: Growth inhibition of human HOP62 cells assessed as growth percentage at 10 uM incubated for 48 hrs by sulforhodamine B assay relative to control
Assay type: functional
condition.summary: HOP-62, 48 h, read-out: Activity
Items are presented alongside their recorded growth at 10 µM.
Express the result in % but write the number alone.

In [3]: df
Out[3]:
                                   molecule  recorded_result
0  CC(=O)N1C(=S)NC(C)=C(C(=O)OC(C)C)C1c1ccc2c(c1)OCO2 (racemic)             88.5
1  CC(=O)C1=C(C)Nc2nc3ccccc3n2C1c1ccc2c(c1)OCO2 (racemic)             94.7
2  CC1=C(C(=O)c2ccccc2)C(c2ccc3c(c2)OCO3)NC(=O)N1 (racemic)             99.2
3  CC(=O)N1C(=S)NC(C)=C(C(=O)OCC(C)C)C1c1ccc2c(c1)OCO2 (racemic)             91.9
4  CC(=O)N1C(=S)NC(C)=C(C(=O)OCc2ccccc2)C1c1ccc2c(c1)OCO2 (racemic)             75.5

I'd like to know its growth at 10 µM. The molecule in question is O=C1C2=C(NC(=S)NC2c2ccc3c(c2)OCO3)c2ccccc21 (racemic)
104

Queued: CC1=C(C(=O)OCc2ccccc2)C(c2ccc3c(c2)OCO3)NC(=S)N1 (racemic)
106

Queued: CC(=O)C1=C(C)NC(=S)NC1c1ccc2c(c1)OCO2 (racemic)
104

---

System: RXF 393
experiment.notes: Growth inhibition of human RXF393 cells assessed as growth percentage at 10 uM incubated for 48 hrs by sulforhodamine B assay relative to control
Type: functional
condition.summary: RXF 393, 48 h, read-out: Activity
Items are presented alongside their recorded growth at 10 µM.
Express the result in % but write the number alone.

Illustrative cases are given below, each with its answer.
>>> df
                                   compound  tested_target  observed_property  recorded_result
0  CC1=C(C(=O)OCc2ccccc2)C(c2ccc3c(c2)OCO3)NC(=O)N1 (racemic)        RXF 393    growth at 10 µM              102
1  CC1=C(C(=O)OCc2ccccc2)C(c2ccc3c(c2)OCO3)NC(=S)N1 (racemic)        RXF 393    growth at 10 µM             94.4

I'd like to know its growth at 10 µM. The compound in question is CC1=C(C(=O)c2ccccc2)C(c2ccc3c(c2)OCO3)NC(=O)N1 (racemic)
109

Queued: COCCOC(=O)C1=C(C)NC(=O)NC1c1ccc2c(c1)OCO2 (racemic)
94.6

Queued: CC1=C(C(=O)OCC(C)C)C(c2ccc3c(c2)OCO3)NC(=O)N1 (racemic)
101

Queued: CC1=C(C(=O)c2ccccc2)C(c2ccc3c(c2)OCO3)NC(=S)N1 (racemic)
59.5

Queued: CC(=O)C1=C(C)Nc2nc3ccccc3n2C1c1ccc2c(c1)OCO2 (racemic)
108

Queued: O=C1NC2=C(C(=O)c3ccccc32)C(c2ccc3c(c2)OCO3)N1 (racemic)
98.8

---

Items are presented alongside their recorded growth at 10 µM.
Tested on: NCI-H322M
experiment.notes: Growth inhibition of human NCI-H322M cells assessed as growth percentage at 10 uM incubated for 48 hrs by sulforhodamine B assay relative to control
Type: functional
condition.summary: read-out: Activity
Express the result in % but write the number alone.

What reported growth at 10 µM corresponds to CC1(C)CC(=O)C2=C(C1)NC(=O)NC2c1ccc2c(c1)OCO2 (racemic) on NCI-H322M?
105

Queued: O=C1C2=C(NC(=S)NC2c2ccc3c(c2)OCO3)c2ccccc21 (racemic)
106

Queued: COCCOC(=O)C1=C(C)NC(=S)N(C(C)=O)C1c1ccc2c(c1)OCO2 (racemic)
101

Queued: CC1=C(C(=O)OCC(C)C)C(c2ccc3c(c2)OCO3)NC(=O)N1 (racemic)
115

Queued: COCCOC(=O)C1=C(C)NC(=S)NC1c1ccc2c(c1)OCO2 (racemic)
101

Queued: COCCOC(=O)C1=C(C)NC(=O)NC1c1ccc2c(c1)OCO2 (racemic)
107

Queued: CC1=C(C(=O)c2ccccc2)C(c2ccc3c(c2)OCO3)NC(=S)N1 (racemic)
67.7

Queued: CC1=C(C(=O)OC(C)C)C(c2ccc3c(c2)OCO3)NC(=S)N1 (racemic)
108

Queued: CC1=C(C(=O)OCc2ccccc2)C(c2ccc3c(c2)OCO3)NC(=O)N1 (racemic)
104

Queued: CC(=O)N1C(=S)NC(C)=C(C(=O)OCc2ccccc2)C1c1ccc2c(c1)OCO2 (racemic)
101
